Hi there, I'd appreciate the recorded growth inhibition for every entry that follows.
- PROCEDURE_SUMMARY: NCI Yeast Anticancer Drug Screen. Data for the bub3 strain (AID 167)
- REPORTED_CONDITIONS: S. cerevisiae bub3 mutant strain, at 50.0 µM, active compounds read high
This is part of a sample that, as a whole, favours compounds with a hit. Of some 79,000 tested, about 15% had one in any assay.
# output: bare number, implied unit %

Exercise: Need growth inhibition, item N#C/C(=C/c1cccc2ccccc12)C(N)=O
Solution: 28.6

Exercise: Need growth inhibition, item CCNCC(=O)Nc1ccc(C(=O)OC)cc1
Solution: 1.45

Exercise: Need growth inhibition, item O=C1CCCC2(c3ccc([N+](=O)[O-])cc3)C1C1C(=O)CCCC12c1ccc([N+](=O)[O-])cc1 (stereo not given)
Solution: 5.4

Exercise: Need growth inhibition, item CS(=O)(=O)Oc1ccccc1OS(C)(=O)=O
Solution: 2.6

Exercise: Need growth inhibition, item CN(/N=C(\C(=O)O)c1ccccc1)C1=NCCN1
Solution: -1.4

Exercise: Need growth inhibition, item Cc1cc(C)c(NC(=O)c2c(Cl)c(Cl)c(Cl)c(Cl)c2C(=O)O)c(C)c1
Solution: 5.5

Exercise: Need growth inhibition, item O=C1CN(/N=C/c2ccc(-c3ccc(F)cc3)o2)C(=O)N1
Solution: 5.05

Exercise: Need growth inhibition, item Nc1ccc(S(=O)(=O)Nc2cnc3c(Cl)cccc3n2)cc1
Solution: 32.2

Exercise: Need growth inhibition, item COc1ccc(N2NC(c3ccccc3)(c3ccccc3)C(C)C2=O)cc1 (stereo not given)
Solution: 51.2

Exercise: Need growth inhibition, item Cc1ncc(COP(=O)(O)O)c(C)c1O
Solution: -31.3

###

- PROCEDURE_SUMMARY: NCI Yeast Anticancer Drug Screen. Data for the cln2 rad14 strain (AID 165);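 note: 0% = growth equal to vehicle treated cultures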
- REPORTED_CONDITIONS: S. cerevisiae cln2 rad14 strain, at 50.0 µM, active compounds read high
The panel holds about 79,000 compounds, 15% with a hit somewhere; the sample as a whole holds those more often. The source made the active and inactive calls. No stated cut-off is given here; in the data, active means growth inhibition above about 70%; inactive means the rest.
Hi there, I'd appreciate the recorded growth inhibition for every entry that follows.

Exercise: Need growth inhibition, item CCOC(=O)C1NC(=O)C(C(=O)OCC)C1C(C)C (stereo not drawn)
Solution: -8.25% (inactive)

Exercise: Need growth inhibition, item O=C(Nc1ccc([N+](=O)[O-])cc1Cl)OCCc1ccccn1
Solution: -10.6% (inactive)

Exercise: Need growth inhibition, item O=c1cc(C=Nc2ccc(-c3csc(-c4ccccc4)n3)cc2)[nH]c(=S)[nH]1
Solution: 97.2% (active)

###

Hi there, I'd appreciate the recorded growth inhibition for every entry that follows.
- PROCEDURE_SUMMARY: NCI Yeast Anticancer Drug Screen. Data for the bub3 strain (AID 167)
- REPORTED_CONDITIONS: S. cerevisiae bub3 mutant strain, at 50.0 µM, active compounds read high
Compounds without any hit were thinned out: in the full panel of roughly 79,000, 15% have a hit.
# output: bare number, implied unit %

Exercise: Need growth inhibition, item CC(=O)Oc1cccc(O)c1
Solution: -4.15

Exercise: Need growth inhibition, item N#CCc1nn(-c2ccccc2)c2ncn(N)c(=N)c12
Solution: 6.2

Exercise: Need growth inhibition, item COc1ccc(NC(=O)c2cc3ccccc3cc2OC(=O)NC(C)(C)C)cc1
Solution: -0.15

Exercise: Need growth inhibition, item NC(=O)c1cc2ccccc2c2ccccc12
Solution: -1

Exercise: Need growth inhibition, item CCOC(=O)C1CCCC1S(=O)(=O)c1ccc(C)cc1 (stereo not drawn)
Solution: 1.75

Exercise: Need growth inhibition, item O=C(Nc1ccc(Cl)c(Cl)c1)Oc1ccc(-c2ccccc2)cc1
Solution: 87.5

Exercise: Need growth inhibition, item O=C1c2ccccc2C(=O)C1(O)c1c[nH]c2ccccc12
Solution: -18

Exercise: Need growth inhibition, item O=c1[nH][nH]c(=O)c(Cl)c1Cl
Solution: -0.85

Exercise: Need growth inhibition, item O=C(O)CC(CC(=O)O)c1ccc(F)cc1
Solution: 2.05

Exercise: Need growth inhibition, item Cc1cccc(C[P+](C/C=C/c2ccccc2)(c2ccccc2)c2ccccc2)c1
Solution: 99.5

Exercise: Need growth inhibition, item COc1ccc(-c2c3c(n(C4OC(COC(C)=O)C(OC(C)=O)C(OC(C)=O)C4OC(C)=O)c(=S)c2C#N)CCC3)cc1 (stereo not drawn)
Solution: 46.8

Exercise: Need growth inhibition, item O=C(Nc1ccccc1)C1C2C=CC(CC2)C1C(=O)Nc1ccccc1 (stereo not drawn)
Solution: -11.5

Exercise: Need growth inhibition, item COCCCNC(=O)c1nc2ccccc2c(=O)n1NC(=O)Cc1ccccc1
Solution: 0.3

Exercise: Need growth inhibition, item CCOC(=O)C(=O)Nc1c(N(CC)CC)n2ccccc2nc1=O
Solution: 2.6

Exercise: Need growth inhibition, item O=P1(c2ccccc2)C(c2ccccc2)=CC=C1c1ccccc1
Solution: 12.3

Exercise: Need growth inhibition, item COc1ccc(/C=C2\N=C(N/N=C\C(O)C(O)C(O)C(O)CO)NC2=O)cc1 (stereo not drawn)
Solution: -3.8

Exercise: Need growth inhibition, item FC(F)(F)C(Cl)=C(Cl)Cl
Solution: -13.7

Exercise: Need growth inhibition, item CCOC(=O)N(C)C(=C(F)F)C(F)(F)F
Solution: 12.4

Exercise: Need growth inhibition, item CSc1nc(NC2OCC(OC(C)=O)C(OC(C)=O)C2OC(C)=O)c2c(n1)OCC2=O (stereo not drawn)
Solution: 13.4

Exercise: Need growth inhibition, item N#CCOc1ccc(/C=C/C(=O)c2ccc(Cl)cc2)cc1
Solution: 20.4

Exercise: Need growth inhibition, item C=CS(=O)CCCCCCC (stereo not drawn)
Solution: 4.45

Exercise: Need growth inhibition, item CNC(=O)C(c1ccccc1)C(O)c1ccccc1 (stereo not drawn)
Solution: -0.15

Exercise: Need growth inhibition, item COc1cc(C=O)cc(O)c1O
Solution: -1.9

Exercise: Need growth inhibition, item COc1ccc([N+](=O)[O-])cc1NC(=O)N/N=C(\C)C(C)(C)C
Solution: 3.4

Exercise: Need growth inhibition, item [Cl][Sn]1([Cl])[CH2]CCCCCCCCCC[CH2][Sn]([Cl])([Cl])[CH2]CCCCCCCCCC[CH2]1
Solution: -13.6

Exercise: Need growth inhibition, item O=C(Nc1cccc(Cl)c1)Nc1ccc(Sc2ccc(Cl)cc2)o1
Solution: 47.6

Exercise: Need growth inhibition, item C[N+](C)(C)CCOC(=O)c1ccccc1CCl
Solution: 97.3

Exercise: Need growth inhibition, item NC(CC1=CS(=O)(=O)c2ccc(Cl)cc21)C(=O)O (stereo not drawn)
Solution: 23.8
